# assay-remarks: Oral bioavailability in Wistar rat plasma at 2 mg/kg administered as single dose via gavage by HPLC-MS/MS analysis
# Type: ADME, organism-based
parameter-measured: bioavailability (%)

>>> df
                               given_smiles  experimental_value
0  COc1ccc(-n2nc3c4ccc(OC)cc4[nH]cc-3c2=O)cc1                66.9
1  [2H]C([2H])([2H])Oc1ccc(-n2nc3c4ccc(OC)cc4[nH]cc-3c2=O)cc1                 100

* * *

# assay-remarks: Terminal elimination half-life in Wistar rat brain at 2 mg/kg administered as single dose via oral gavage by HPLC-MS/MS analysis
# Format: ADME, organism-based
# assay-context: read-out: beta t1/2 (converted)
Collected half-life values appear next to each entry.
parameter-measured: half-life (h)

                               given_smiles  experimental_value
0  [2H]C([2H])([2H])Oc1ccc(-n2nc3c4ccc(OC)cc4[nH]cc-3c2=O)cc1                 4.2
1  COc1ccc(-n2nc3c4ccc(OC)cc4[nH]cc-3c2=O)cc1                12.7

* * *

# Species on record: Rattus norvegicus
# assay-remarks: Displacement of [3H]-flunitrazepam from rat brain GABA-A receptor benzodiazepine site […] at 10 uM after 60 to 90 mins by scintillation counting
# assay-context: tested as the 2H-labelled form
Active and inactive are the calls of the source. The rule behind the calls is not given here.
Labels: Yes = active, No = inactive

                               given_smiles  assigned_label
0  COc1cccc(-n2nc3c4ccc(Br)cc4[nH]cc-3c2=O)c1             Yes
1  COc1ccc(-n2nc3c4cc(Cl)ccc4[nH]cc-3c2=O)cc1             Yes
2  COc1ccc(-n2nc3c4ccc(Br)cc4[nH]cc-3c2=O)cc1             Yes
3  COc1ccc2c3nn(-c4ccccc4OC)c(=O)c-3c[nH]c2c1              No
4  COc1cccc(-n2nc3c4cc(Cl)ccc4[nH]cc-3c2=O)c1             Yes
5  COc1ccc(-n2nc3c4cc(Cl)ccc4[nH]cc-3c2=O)cn1             Yes
6  COc1ccccc1-n1nc2c3ccc(Br)cc3[nH]cc-2c1=O             Yes
7  COc1ccccc1-n1nc2c3cc(Cl)ccc3[nH]cc-2c1=O             Yes

* * *

# assay-remarks: Terminal elimination half-life in Wistar rat plasma at 2 mg/kg, iv administered as single dose by HPLC-MS/MS analysis
# Type: ADME, organism-based
# assay-context: read-out: beta t1/2 (converted)
# Lookup of reported half-life keyed by entry
parameter-measured: half-life (h)

In [3]: df
Out[3]:
                               given_smiles  unit_symbol  experimental_value
0  [2H]C([2H])([2H])Oc1ccc(-n2nc3c4ccc(OC)cc4[nH]cc-3c2=O)cc1            h                1.95
1  COc1ccc(-n2nc3c4ccc(OC)cc4[nH]cc-3c2=O)cc1            h                5.29

* * *

Overview of recorded half-life for various compounds
# assay-remarks: Terminal elimination half-life in Wistar rat plasma at 10 mg/kg, ip administered as single dose by HPLC-MS/MS analysis
# Format: ADME, organism-based
# assay-context: read-out: beta t1/2 (converted)
parameter-measured: half-life (h)

                               given_smiles  experimental_value
0  [2H]C([2H])([2H])Oc1ccc2c3nn(-c4ccc(OC)cc4)c(=O)c-3c[nH]c2c1                2.46
1  [2H]C([2H])([2H])Oc1ccccc1-n1nc2c3cc(Cl)ccc3[nH]cc-2c1=O                3.66
2  [2H]C([2H])([2H])Oc1ccc(-n2nc3c4ccc(OC)cc4[nH]cc-3c2=O)cc1                3.54
3  COc1ccc(-n2nc3c4ccc(OC)cc4[nH]cc-3c2=O)cc1                1.51
4  [2H]C([2H])([2H])Oc1ccc2c3nn(-c4ccc(OC)nc4)c(=O)c-3c[nH]c2c1                  18
5  [2H]C([2H])([2H])Oc1ccc(-n2nc3c4ccc(OC([2H])([2H])[2H])cc4[nH]cc-3c2=O)cc1                2.64

* * *

# assay-remarks: Aqueous solubility of the compound in DI water at pH 7 after 2 hrs by LC-MS analysis
# Type: physicochemical
# assay-context: buffer, pH 7, 2 h
Examples of molecules with documented log10(solubility) follow.
parameter-measured: log10(solubility) (log10 of the value in µM)

In [3]: df
Out[3]:
                               given_smiles  parameter_measured  experimental_value
0  COc1cccc(-n2nc3c4cc(Cl)ccc4[nH]cc-3c2=O)c1   log10(solubility)                0.83
1  COc1ccc(-n2nc3c4ccc(Br)cc4[nH]cc-3c2=O)cc1   log10(solubility)                0.92
2  COc1ccc(-n2nc3c4cc(Cl)ccc4[nH]cc-3c2=O)cn1   log10(solubility)               -0.10
3  COc1ccc(-n2nc3c4cnc(OC)cc4[nH]cc-3c2=O)cc1   log10(solubility)                2.02
4  COc1ccc(-n2nc3c4ccc(Br)cc4[nH]cc-3c2=O)cn1   log10(solubility)                0.86
5  COc1ccc(-n2nc3c4cc(Cl)ccc4[nH]cc-3c2=O)cc1   log10(solubility)                0.81
6  COc1ccc2c3nn(-c4ccc(OC)nc4)c(=O)c-3c[nH]c2c1   log10(solubility)                1.83
7  COc1ccc(-n2nc3c4ccc(OC)cc4[nH]cc-3c2=O)cc1   log10(solubility)                1.39

* * *

# Tested on: HepG2
# assay-remarks: Cytotoxicity against human HepG2 cells assessed as reduction in cell viability up to 400 uM after 48 hrs by CellTiter-Glo assay
# Assay type: cell-based
# assay-context: hepg2, 48 h
parameter-measured: Activity

>>> df
                               given_smiles  experimental_value
0  [2H]C([2H])([2H])Oc1cccc(-n2nc3c4cc(Cl)ccc4[nH]cc-3c2=O)c1           Non-Toxic
1  [2H]C([2H])([2H])Oc1ccccc1-n1nc2c3cc(Cl)ccc3[nH]cc-2c1=O           Non-Toxic
2  [2H]C([2H])([2H])Oc1ccc2c3nn(-c4ccc(OC)cc4)c(=O)c-3c[nH]c2c1           Non-Toxic

* * *

# assay-remarks: Tmax in Wistar rat plasma at 2 mg/kg administered as single dose via oral gavage by HPLC-MS/MS analysis
# Assay type: ADME, organism-based
List of Tmax values.
parameter-measured: Tmax (h)

In [3]: df
Out[3]:
                               given_smiles  parameter_measured  unit_symbol  experimental_value
0  COc1ccc(-n2nc3c4ccc(OC)cc4[nH]cc-3c2=O)cc1                Tmax            h                   2
1  [2H]C([2H])([2H])Oc1ccc(-n2nc3c4ccc(OC)cc4[nH]cc-3c2=O)cc1                Tmax            h                 5.5

* * *

# assay-remarks: Tmax in Wistar rat brain at 10 mg/kg, ip administered as single dose by HPLC-MS/MS analysis
# Assay type: ADME, organism-based
Recorded Tmax values for a group of compounds are listed next.
parameter-measured: Tmax (h)

>>> df
                               given_smiles  experimental_value
0  [2H]C([2H])([2H])Oc1ccc2c3nn(-c4ccc(OC)cc4)c(=O)c-3c[nH]c2c1                2.11
1  [2H]C([2H])([2H])Oc1ccc(-n2nc3c4ccc(OC([2H])([2H])[2H])cc4[nH]cc-3c2=O)cc1                0.78
2  [2H]C([2H])([2H])Oc1ccccc1-n1nc2c3cc(Cl)ccc3[nH]cc-2c1=O                0.78
3  [2H]C([2H])([2H])Oc1ccc2c3nn(-c4ccc(OC)nc4)c(=O)c-3c[nH]c2c1                1.67
4  COc1ccc(-n2nc3c4ccc(OC)cc4[nH]cc-3c2=O)cc1                2.33
5  [2H]C([2H])([2H])Oc1ccc(-n2nc3c4ccc(OC)cc4[nH]cc-3c2=O)cc1                2.33
